test system: Brugia malayi; assay: Endoparasites_DR: endoparasites dose response assay, B. malayi; type: cell-based; details: Table 2, column B. malayi, read-out: EC50(IC50)
Readout Type: EC50 (µM)

[[record]]
smiles_str = "Cn1cc(/C=C/C(=O)c2cccc(NC(=O)OC(C)(C)C)c2)cc1C(=O)NO"
readout_type = "EC50"
result_number = 4.39

[[record]]
smiles_str = "CC(C)(C)OC(=O)Nc1cccc(C(=O)/C=C/c2ccc(/C=C/C(=O)NO)cc2)c1"
readout_type = "EC50"
result_number = 2.53


---

The entries below are paired with their reported IC50.
system: L. donovani strain MHOM/SD/00/LS; experiment: LEI axe: Leishmania axenic amastigote assay; assay type: cell-based; conditions: 72 hour, axenic amastigotes, resazurin, read-out: measured activity (IC50), LEI axe, Ld1S
Readout Type: IC50

[[record]]
compound = "CN1CCc2c(c3ccccc3n2Cc2ccc(C(=O)NO)cc2)C1 [GRM2, Tubastatin, reference compound]"
readout_type = "IC50"
result = "> 5 µM"

[[record]]
compound = "CN(C)Cc1ccc(S(=O)(=O)n2ccc3cc(/C=C/C(=O)NO)ccc32)cc1 [MC3031]"
readout_type = "IC50"
result = "> 5 µM"

[[record]]
compound = "CC(C)(C)OC(=O)Nc1cccc(C(=O)/C=C/c2ccc(/C=C/C(=O)NO)cc2)c1 [MC2780]"
readout_type = "IC50"
result = "0.473 µM"

[[record]]
compound = "O=C(/C=C/c1ccc(NC(=O)C(Cc2ccccc2)c2ccccc2)cn1)NO (centres unmarked) [MC2625]"
readout_type = "IC50"
result = "> 5 µM"

[[record]]
compound = "COc1cc(-c2ccccc2)nc(SCc2ccc(/C=C/C(=O)NO)cc2)n1 [MC2126]"
readout_type = "IC50"
result = "> 5 µM"

